TARGET_UNDER_TEST: UniProt Q93PF7
Sequence (Q93PF7 1-239): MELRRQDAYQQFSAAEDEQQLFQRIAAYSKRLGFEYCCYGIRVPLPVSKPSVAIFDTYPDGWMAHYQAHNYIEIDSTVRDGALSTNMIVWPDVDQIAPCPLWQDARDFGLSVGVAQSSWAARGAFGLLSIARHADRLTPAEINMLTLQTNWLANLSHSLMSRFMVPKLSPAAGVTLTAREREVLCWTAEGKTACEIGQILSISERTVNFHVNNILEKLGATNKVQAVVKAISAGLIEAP
ASSAY_SUMMARY: CepR agonism in B. multivorans cepI::lacZ reporter (Bm-reporter)
Assay type: cell-based
EXPERIMENTAL_SETUP: Bm-reporter; activity for 100 μM C8-AHL set to 100%; error ±10%
ASSAY_READOUT: Maximal Activation (%)
Expressed in %, but write only the number.

## Task Kindly state the measured Maximal Activation (%) obtained for CCCCCC(O)CC(=O)N[C@H]1CCOC1=O (some centres unmarked) [3’OH-C8-AHL, reference compound] with UniProt Q93PF7.
## Result 78

## Task Kindly state the measured Maximal Activation (%) obtained for O=C(CCCOc1ccc(Cl)cc1)NC1CCOC1=O (centres unmarked) [CL, reference compound] with UniProt Q93PF7.
## Result 80

## Task Kindly state the measured Maximal Activation (%) obtained for O=C(CCc1ccc(Cl)cc1)N[C@H]1CCOC1=O with UniProt Q93PF7.
## Result 84

## Task Kindly state the measured Maximal Activation (%) obtained for CSc1ccc(CCC(=O)N[C@H]2CCOC2=O)cc1 with UniProt Q93PF7.
## Result 110

## Task Kindly state the measured Maximal Activation (%) obtained for O=C(CCc1ccc(Br)cc1)N[C@H]1CCOC1=O with UniProt Q93PF7.
## Result 82

* * *

TARGET_UNDER_TEST: CepR (Burkholderia cenocepacia)
ASSAY_SUMMARY: CepR antagonism in E. coli β-galactosidase reporter (Ec-reporter), competition against C8-AHL
Type: cell-based, B. cenocepacia
EXPERIMENTAL_SETUP: Ec-reporter; against 10 nM C8-AHL
For each of the compounds below, state its Maximal Inhibition (%).
Expressed in %, but write only the number.

## Task Suppose we examine the compound O=C(Cc1cccc([N+](=O)[O-])c1)NC1CCOC1=O (stereo not shown) ; what Maximal Inhibition (%) value has been reported?
## Result 46

## Task Suppose we examine the compound CSc1cccc(CC(=O)NC2CCOC2=O)c1 (stereo not shown) ; what Maximal Inhibition (%) value has been reported?
## Result 76

## Task Suppose we examine the compound CCCCCC(=O)CC(=O)N[C@H]1CCOC1=O [3’O-C8-AHL, reference compound] ; what Maximal Inhibition (%) value has been reported?
## Result 71

## Task Suppose we examine the compound O=C(Cc1cccc(Cl)c1)N[C@H]1CCOC1=O ; what Maximal Inhibition (%) value has been reported?
## Result 66

## Task Suppose we examine the compound O=C(Cc1cccc(Br)c1)N[C@H]1CCOC1=O ; what Maximal Inhibition (%) value has been reported?
## Result 79

## Task Suppose we examine the compound N#Cc1cccc(CC(=O)N[C@H]2CCOC2=O)c1 ; what Maximal Inhibition (%) value has been reported?
## Result 81

## Task Suppose we examine the compound CCCCCCS(=O)(=O)N[C@H]1CCOC1=O ; what Maximal Inhibition (%) value has been reported?
## Result 78

## Task Suppose we examine the compound O=C(Cc1ccccc1Cl)N[C@H]1CCOC1=O ; what Maximal Inhibition (%) value has been reported?
## Result 89

## Task Suppose we examine the compound CCCCCC(=O)N[C@H]1CCOC1=O [Compound C6-AHL, hexanoyl L-homoserine lactone, reference compound] ; what Maximal Inhibition (%) value has been reported?
## Result 83

## Task Suppose we examine the compound O=C(N[C@H]1CCOC1=O)C1CCCC1 ; what Maximal Inhibition (%) value has been reported?
## Result 72

* * *

TARGET_UNDER_TEST: CepR (Burkholderia multivorans)
Sequence (Q93PF7 1-239): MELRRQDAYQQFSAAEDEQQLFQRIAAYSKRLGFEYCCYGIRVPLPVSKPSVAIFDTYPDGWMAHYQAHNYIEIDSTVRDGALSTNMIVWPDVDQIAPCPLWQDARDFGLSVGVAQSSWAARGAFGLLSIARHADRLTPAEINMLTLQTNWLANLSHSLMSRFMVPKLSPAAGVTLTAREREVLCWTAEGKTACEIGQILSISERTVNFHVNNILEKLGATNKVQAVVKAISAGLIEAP
ASSAY_SUMMARY: CepR antagonism in B. multivorans cepI::lacZ reporter (Bm-reporter), competition against C8-AHL
Assay type: cell-based
EXPERIMENTAL_SETUP: Table S5, Bm-reporter; read-out: IC50
pIC50: −log10 of the molar value.
ASSAY_READOUT: pIC50

## Task Suppose we examine the molecule N#Cc1ccc(CC(=O)N[C@H]2CCOC2=O)cc1 ; what pIC50 value has been reported?
## Result ≤ 5.35

## Task Suppose we examine the molecule O=C(COc1cccc([N+](=O)[O-])c1)N[C@H]1CCOC1=O ; what pIC50 value has been reported?
## Result ≤ 5.48

## Task Suppose we examine the molecule O=C(Cc1cccc(I)c1)N[C@H]1CCOC1=O ; what pIC50 value has been reported?
## Result 5.80

* * *

TARGET_UNDER_TEST: CepR (Burkholderia cenocepacia, UniProt B4EMD0)
Sequence (B4EMD0 1-239): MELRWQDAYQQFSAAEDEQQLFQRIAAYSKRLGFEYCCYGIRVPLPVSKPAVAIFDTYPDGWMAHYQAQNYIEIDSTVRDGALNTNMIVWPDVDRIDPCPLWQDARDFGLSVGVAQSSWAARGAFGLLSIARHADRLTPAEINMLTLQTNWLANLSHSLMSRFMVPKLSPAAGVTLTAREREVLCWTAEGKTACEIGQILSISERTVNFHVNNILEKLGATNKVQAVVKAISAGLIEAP
ASSAY_SUMMARY: CepR agonism in E. coli β-galactosidase reporter (Ec-reporter) JLD271 [pJN105-cepR + pSC11-cepI]
Type: cell-based, B. cenocepacia
EXPERIMENTAL_SETUP: Table S2, Ec-reporter
pEC50: −log10 of the molar value.
Please note: TRUE applies when pEC50 is 7 or greater, and FALSE applies otherwise.

## Task Would you say CCOc1ccc(C(=O)N[C@H]2CCOC2=O)cc1 shows pEC50 at minimum 7?
## Result FALSE

## Task Would you say O=C(COc1ccc(Cl)cc1)N[C@H]1CCOC1=O shows pEC50 at minimum 7?
## Result FALSE

## Task Would you say CCCCCCCC(=O)CC(=O)N[C@H]1CCOC1=O [3’O-C10-AHL, reference compound] shows pEC50 at minimum 7?
## Result FALSE

## Task Would you say Cc1cccc(CCC(=O)N[C@H]2CCOC2=O)c1 shows pEC50 at minimum 7?
## Result FALSE

## Task Would you say O=C(CCCOc1ccc(Cl)cc1)NC1CCOC1=O (centres unmarked) [CL, reference compound] shows pEC50 at minimum 7?
## Result TRUE

## Task Would you say CCCOc1ccc(C(=O)N[C@H]2CCOC2=O)cc1 shows pEC50 at minimum 7?
## Result TRUE

* * *

For each of the compounds below, state its Inh% (100-Act%).
TARGET_UNDER_TEST: UniProt:B4EMD0
ASSAY_SUMMARY: CepR antagonism in E. coli β-galactosidase reporter (Ec-reporter), competition against C8-AHL
Format: cell-based, B. cenocepacia
EXPERIMENTAL_SETUP: Table S3, Ec-reporter; screening conc. 100 μM; against 10 nM C8-AHL
Expressed in %, but write only the number.

## Task Suppose we examine the compound O=C(CCC1CCCCC1)N[C@H]1CCOC1=O ; what Inh% (100-Act%) value has been reported?
## Result -20

## Task Suppose we examine the compound O=C(Cc1ccc2ccccc2c1)N[C@H]1CCOC1=O ; what Inh% (100-Act%) value has been reported?
## Result -10

## Task Suppose we examine the compound O=C(CCCc1c[nH]c2ccccc12)NC1CCCC1 ; what Inh% (100-Act%) value has been reported?
## Result 25

## Task Suppose we examine the compound O=C(COc1ccc(Cl)cc1)N[C@H]1CCOC1=O ; what Inh% (100-Act%) value has been reported?
## Result -20

## Task Suppose we examine the compound CCCCCCCCCCCCCC(O)CC(=O)NC1CCOC1=O (centres unmarked) [3’OH-C16-AHL, reference compound] ; what Inh% (100-Act%) value has been reported?
## Result -50

## Task Suppose we examine the compound O=C(CCc1cccc(C(F)(F)F)c1)N[C@H]1CCOC1=O ; what Inh% (100-Act%) value has been reported?
## Result -10

## Task Suppose we examine the compound CCCc1ccc(C(=O)CCC(=O)N[C@H]2CCOC2=O)cc1 ; what Inh% (100-Act%) value has been reported?
## Result 15

## Task Suppose we examine the compound O=C(Cc1cc(C(F)(F)F)cc(C(F)(F)F)c1)N[C@H]1CCOC1=O ; what Inh% (100-Act%) value has been reported?
## Result 13

## Task Suppose we examine the compound O=C(N[C@H]1CCOC1=O)c1cccc(Br)c1 ; what Inh% (100-Act%) value has been reported?
## Result -30

## Task Suppose we examine the compound O=C(CCCOc1ccc(Cl)cc1)NC1CCOC1=O (centres unmarked) [CL, reference compound] ; what Inh% (100-Act%) value has been reported?
## Result -20

## Task Suppose we examine the compound O=C(CCc1ccco1)N[C@H]1CCOC1=O [Compound D2] ; what Inh% (100-Act%) value has been reported?
## Result 0.0

## Task Suppose we examine the compound CC(C)(C)OC(=O)Nc1ccc(CC(=O)N[C@H]2CCOC2=O)cc1 ; what Inh% (100-Act%) value has been reported?
## Result -70

## Task Suppose we examine the compound Cc1cccc(CC(=O)N[C@H]2CCOC2=O)c1 [Compound E1] ; what Inh% (100-Act%) value has been reported?
## Result 11

## Task Suppose we examine the compound COc1ccc(CCC(=O)N[C@H]2CCOC2=O)cc1 ; what Inh% (100-Act%) value has been reported?
## Result -30

## Task Suppose we examine the compound O=C(Cc1cccc([N+](=O)[O-])c1)Nc1cccc([N+](=O)[O-])c1 ; what Inh% (100-Act%) value has been reported?
## Result 13

## Task Suppose we examine the compound O=C(N[C@H]1CCOC1=O)c1ccc(-c2ccccc2)cc1 ; what Inh% (100-Act%) value has been reported?
## Result -70

## Task Suppose we examine the compound O=C(N[C@H]1CCOC1=O)c1ccccc1Br ; what Inh% (100-Act%) value has been reported?
## Result -30

## Task Suppose we examine the compound O=C(CCc1cccs1)N[C@H]1CCOC1=O ; what Inh% (100-Act%) value has been reported?
## Result -40

## Task Suppose we examine the compound O=C(CC1CCCCC1)N[C@H]1CCOC1=O ; what Inh% (100-Act%) value has been reported?
## Result 20

## Task Suppose we examine the compound O=C(Cc1ccccc1F)N[C@H]1CCOC1=O ; what Inh% (100-Act%) value has been reported?
## Result 3.0
